- experiment-description: Selectivity index, ratio of CC50 for human HeLa cells to IC50 for Plasmodium falciparum Dd2 ring stage cells
- Assay type: functional
endpoint: Ratio CC50/IC50
Numbers only.

A selection of reference data follows.
Read off the recorded Ratio CC50/IC50 for `Cc1cn([C@H]2C[C@H](NC(=O)NCCNc3ccnc4cc(Cl)ccc34)[C@@H](CO[Si](c3ccccc3)(c3ccccc3)C(C)(C)C)O2)c(=O)[nH]c1=O`
69.9

Read off the recorded Ratio CC50/IC50 for `CCOC(=O)C(=O)N[C@H]1C[C@H](n2cc(C)c(=O)[nH]c2=O)O[C@@H]1CO[Si](c1ccccc1)(c1ccccc1)C(C)(C)C`
5.3

Read off the recorded Ratio CC50/IC50 for `NCCNc1ccnc2cc(Cl)ccc12`
275.8

Read off the recorded Ratio CC50/IC50 for `Cc1cn([C@H]2C[C@H](NC(=O)NCCCCCNc3ccnc4cc(Cl)ccc34)[C@@H](CO[Si](c3ccccc3)(c3ccccc3)C(C)(C)C)O2)c(=O)[nH]c1=O`
451.6

Read off the recorded Ratio CC50/IC50 for Cc1cn([C@H]2C[C@H](NC(=O)CC3CCC4(CC3)OOC3(OO4)C4CC5CC(C4)CC3C5)[C@@H](CO)O2)c(=O)[nH]c1=O (some centres undefined)
233.8

Now let's try a different one.
Read off the recorded Ratio CC50/IC50 for `Cc1cn([C@H]2C[C@H](NC(=O)C(=O)NCCCCCNc3ccnc4cc(Cl)ccc34)[C@@H](CO[Si](c3ccccc3)(c3ccccc3)C(C)(C)C)O2)c(=O)[nH]c1=O`
358.1

###

- Test system: Human immunodeficiency virus 1
- experiment-description: Antiviral activity against HIV1 NL43 infected din human MT4 cells pre-incubated in presence of compound for 48 hrs followed by TZM cells infection with compound treated virus supernatant by X-gal staining based microscopy
- Format: functional, organism-based
- cond: Human immunodeficiency virus 1, NL43, TZM
endpoint: pIC50
Numbers only, as −log10 of the molar value.

Read off the recorded pIC50 for `Cc1cn([C@H]2C[C@H](N=[N+]=[N-])[C@@H](CO[C@H]3O[C@@H]4O[C@@]5(C)CC[C@H]6[C@H](C)CC[C@@H]([C@H]3C)[C@@]46OO5)O2)c(=O)[nH]c1=O`
6.31

###

- experiment-description: Selectivity index, ratio of CC50 for human HeLa cells to IC50 for Plasmodium falciparum Dd2 ring stage cells
- Type: functional
endpoint: Ratio CC50/IC50

A selection of reference data follows.
Read off the recorded Ratio CC50/IC50 for `NCCCCCNc1ccnc2cc(Cl)ccc12`
>246.3

Read off the recorded Ratio CC50/IC50 for `Cc1cn([C@H]2C[C@H](NC(=O)C(=O)NCCCCCNc3ccnc4cc(Cl)ccc34)[C@@H](CO)O2)c(=O)[nH]c1=O`
>9.5

Now let's try a different one.
Read off the recorded Ratio CC50/IC50 for `Cc1cn([C@H]2C[C@H](N=[N+]=[N-])[C@@H](CO)O2)c(=O)n(CCNc2ccnc3cc(Cl)ccc23)c1=O`
>153.8

###

- experiment-description: Selectivity index, ratio of CC50 for human HeLa cells to IC50 for Plasmodium falciparum Dd2 ring stage cells
- Assay type: functional
endpoint: Ratio CC50/IC50

Working through the 4 compounds below one at a time, give Ratio CC50/IC50 for each.
1. Cc1cn([C@H]2C[C@H](NC(=O)NCCNc3ccnc4cc(Cl)ccc34)[C@@H](CO)O2)c(=O)[nH]c1=O
2. Cc1cn([C@H]2C[C@H](N=[N+]=[N-])[C@@H](CO)O2)c(=O)n(Cc2cccc(Nc3ccnc4cc(Cl)ccc34)c2)c1=O
3. OCCNc1ccnc2cc(Cl)ccc12
4. Cc1cn([C@H]2C[C@H](n3cc(CO[C@H]4O[C@@H]5O[C@@]6(C)CC[C@H]7[C@H](C)CC[C@@H]([C@H]4C)[C@@]57OO6)nn3)[C@@H](CO)O2)c(=O)[nH]c1=O

>3.2
>454.5
>58.1
>1000

###

- experiment-description: Selectivity index, ratio of CC50 for human HeLa cells to IC50 for Plasmodium falciparum Dd2 ring stage cells
- Format: functional
endpoint: Ratio CC50/IC50

Working through the 4 compounds below one at a time, give Ratio CC50/IC50 for each.
1. Cc1cn([C@H]2C[C@H](N=[N+]=[N-])[C@@H](CO[C@H]3O[C@@H]4O[C@@]5(C)CC[C@H]6[C@H](C)CC[C@@H]([C@H]3C)[C@@]46OO5)O2)c(=O)[nH]c1=O
2. Cc1cn([C@H]2C[C@H](NC(=O)NCCCCCNc3ccnc4cc(Cl)ccc34)[C@@H](CO)O2)c(=O)[nH]c1=O
3. Cc1cn([C@H]2C[C@H](NC(=O)CC3CCC4(CC3)OOC3(OO4)C4CC5CC(C4)CC3C5)[C@@H](CO[Si](c3ccccc3)(c3ccccc3)C(C)(C)C)O2)c(=O)[nH]c1=O (some centres undefined)
4. OCc1cccc(Nc2ccnc3cc(Cl)ccc23)c1

1: >10000; 2: >12.5; 3: >526.3; 4: >68.5
